Property: %Inh; scope: individual compounds
- System: MST1
- Construct: gene STK4
- Experimental Setup: concentration: 1 μM, replicates: in singlicate; n = 1;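 further: KINOMEscan kinase panel screen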

Compound: COc1cccc(-n2cnc3c(N)ncnc32)c1
Target Of Assay: MST1
%Inh: 0%
--
Compound: CCC(=O)c1c(-c2ccccc2)c2cc(Cl)ccc2c(=O)n1Cc1ccc(C(=O)O)cc1
Target Of Assay: MST1
%Inh: 0%
--
Compound: COc1ccc(CNC(=O)NC2CCN(c3ccnc(Nc4ccc(F)cc4)n3)C2)cc1 (stereo not drawn)
Target Of Assay: MST1
%Inh: 0%
--
Compound: Cc1cccc(-c2cc(-c3c[nH]nc3-c3ccccn3)ccn2)c1
Target Of Assay: MST1
%Inh: 0%
--
Compound: C[C@@H]1CC[C@H](C(=O)NC2CCCCC2)CN1c1cc(-c2ccc3c(N)n[nH]c3c2)nc(N)n1
Target Of Assay: MST1
%Inh: 12%
--
Compound: COc1cc2ncn(-c3cc(OCCCc4ccccc4)c(C(N)=O)s3)c2cc1OC
Target Of Assay: MST1
%Inh: 0%

----------
- Tested on: ASK1
- Construct: gene MAP3K5
- Experimental Setup: concentration: 1 μM, replicates: in singlicate; n = 1
Outcome: 1 for %Inh of at least 2%; 0 for anything lower.

Molecule: CCCNC(=O)Nc1ccc(Oc2ncnc3ccn(C)c23)cc1
Category Label: 0

Molecule: CCS(=O)c1ccc(-c2coc3ccc(-c4nnc(C)o4)cc23)cc1 (centres unmarked)
Category Label: 0

Molecule: Nc1ncnc2c1ncn2-c1cccc2ccccc12 [SKF-97184]
Category Label: 0

Molecule: CCC(=O)c1c(-c2ccccc2)c2cc(Cl)ccc2c(=O)n1Cc1cc(S(C)(=O)=O)n(CCC(C)(C)O)n1
Category Label: 1

Molecule: COc1ccc(-c2coc3ccc(-c4nnc(SCc5cccc(C#N)c5)o4)cc23)cc1
Category Label: 1

Molecule: Cl.c1ccc(Cn2cnc3cc(Nc4ncnc5ccccc45)ccc32)cc1 [GW272142]
Category Label: 1

Molecule: Cc1cc(Nc2nc(-c3cccc(C)n3)nc3ccccc23)ccn1 [GW872411]
Category Label: 0

----------
Property: %Inh; scope: individual compounds
- Tested on: MAP3K4
- Experimental Setup: concentration: 1 μM, replicates: in singlicate; n = 1
Property Measured: %Inh (%)

Compound: Cc1cccc(-c2nc(Nc3ccc4c(cnn4C)c3)c3ccccc3n2)n1 [GW876731]
Target Of Assay: MAP3K4
Experimental Value: 10

Compound: COc1cc2ncn(-c3cc(OCCCc4ccccc4)c(C(N)=O)s3)c2cc1OC [GSK205189]
Target Of Assay: MAP3K4
Experimental Value: 16

Compound: CN(C)c1cc(-c2ccc3c(N)n[nH]c3c2)nc(N)n1 [GSK2219329]
Target Of Assay: MAP3K4
Experimental Value: 0

Compound: Nc1nccc2scc(-c3ccc4c(c3)CCN4C(=O)Cc3ccccc3)c12 [GSK2576924]
Target Of Assay: MAP3K4
Experimental Value: 10

Compound: COc1cc2ncn(-c3cc(OCc4ccncc4)c(C(N)=O)s3)c2cc1OC [GSK336313]
Target Of Assay: MAP3K4
Experimental Value: 0

Compound: COc1cccc(-n2cnc3c(N)ncnc32)c1 [SKF-97416]
Target Of Assay: MAP3K4
Experimental Value: 31

Compound: Nc1n[nH]c2ncc(-c3ccccc3)cc12 [SB-517081]
Target Of Assay: MAP3K4
Experimental Value: 3

Compound: COc1cc2nccc(Nc3cccc(Oc4ccccc4)c3)c2cc1OC.Cl [GW284543]
Target Of Assay: MAP3K4
Experimental Value: 0

----------
- Tested on: ERBB2
- Experimental Setup: concentration: 1 μM, replicates: in singlicate; n = 1
Property: %Inh; scope: individual molecules

Smiles Text: COC(=O)c1c(-c2ccccc2)c2cc(Br)ccc2c(=O)n1Cc1ccc(S(C)(=O)=O)cc1
Unit String: %
%Inh: 55

Smiles Text: COc1cccc(C2=C(N(C)c3ccccc3)C(=O)NC2=O)c1
Unit String: %
%Inh: 41

Smiles Text: Nc1ncnc2c1ncn2-c1cccc(F)c1
Unit String: %
%Inh: 1

Smiles Text: Cc1nc(N(C)[C@H]2CN(C(=O)CC#N)CC[C@H]2C)c2cc[nH]c2n1
Unit String: %
%Inh: 7

Smiles Text: Cc1ccccc1COc1cc(-n2cnc3cc(Cl)ccc32)sc1C(N)=O
Unit String: %
%Inh: 14

Smiles Text: CC(C)(C)c1ccc(C(=O)Nc2cn3cc(-c4ccccc4)ccc3n2)cc1
Unit String: %
%Inh: 50

Smiles Text: CCCC(=O)Nc1n[nH]c2ncc(-c3cccc4ccccc34)cc12
Unit String: %
%Inh: 11

Smiles Text: COc1cc(OC)cc(-c2cc3cnc(N)nc3nc2NC(=O)NC(C)(C)C)c1
Unit String: %
%Inh: 4

----------
Property: %Inh; scope: individual compounds
- System: ADCK4
- Experimental Setup: concentration: 1 μM, replicates: in singlicate; n = 1

Compound: CCc1ccc(-c2ccc3c(c2)-c2nn(C)cc2S(=O)(=O)N3C)cc1
%Inh (%): 0
//
Compound: CCn1c(-c2ccoc2)nc2cnccc21 [SB-733887]
%Inh (%): 20
//
Compound: CCC(=O)c1c(-c2ccccc2)c2cc(Cl)ccc2c(=O)n1Cc1cc(S(C)(=O)=O)n(CC(N)=O)n1
%Inh (%): 0
//
Compound: COc1cc(Nc2ccnc3ccc(C(F)(F)F)cc23)cc(OC)c1OC [GW577382]
%Inh (%): 54
//
Compound: CCC(=O)c1c(-c2ccccc2)c2cc(Cl)ccc2c(=O)n1Cc1cc(S(C)(=O)=O)n(CCC(C)(C)O)n1
%Inh (%): 1
//
Compound: Cc1cc(Nc2nc(-c3cccc(C)n3)nc3ccccc23)ccn1 [GW872411]
%Inh (%): 0
//
Compound: Nc1nc(N)c2nc(-c3ccccc3)[nH]c2n1 [SKF-12778]
%Inh (%): 22
//
Compound: O=C(Nc1n[nH]c2cc(-c3ccccc3F)ccc12)C1CC1 [SB-733371]
%Inh (%): 0
//
Compound: O=c1cc(N2CCOCC2)nc2n(Cc3ccc(F)c(Cl)c3)ccn12 [GSK2297099]
%Inh (%): 11

----------
- Test system: TAOK2
- Experimental Setup: concentration: 1 μM, replicates: in singlicate; n = 1
Property Measured: %Inh (%)

Compound: CC(C)(C)c1ccc(C(=O)Nc2cn3cc(-c4ccccc4)ccc3n2)cc1
Property Measured: %Inh
Unit String: %
Experimental Value: 4
//
Compound: COc1cc2nccc(Nc3cccc(Oc4ccccc4)c3)c2cc1OC.Cl
Property Measured: %Inh
Unit String: %
Experimental Value: 0
//
Compound: Cc1cccc(-c2cc(-c3c[nH]nc3-c3ccccn3)ccn2)c1
Property Measured: %Inh
Unit String: %
Experimental Value: 0
//
Compound: COc1cc2ncn(-c3cc(OCc4ccc(S(C)(=O)=O)cc4)c(C(N)=O)s3)c2cc1OC
Property Measured: %Inh
Unit String: %
Experimental Value: 0
//
Compound: CCc1ccc(-c2ccc3c(c2)-c2nn(C)cc2S(=O)(=O)N3C)cc1
Property Measured: %Inh
Unit String: %
Experimental Value: 37
//
Compound: COc1cc(OC)cc(-c2cc3cnc(N)nc3nc2NC(=O)NC(C)(C)C)c1
Property Measured: %Inh
Unit String: %
Experimental Value: 0
//
Compound: Nc1ncnc2c1ncn2-c1ccc(Cl)cc1
Property Measured: %Inh
Unit String: %
Experimental Value: 0
//
Compound: COc1cc(Nc2ccnc3ccc(C(F)(F)F)cc23)cc(OC)c1OC
Property Measured: %Inh
Unit String: %
Experimental Value: 0
//
Compound: Nc1nccc2scc(-c3ccc4c(c3)CCN4C(=O)Cc3ccccc3)c12
Property Measured: %Inh
Unit String: %
Experimental Value: 17
//
Compound: O=C(Nc1ccc2c(c1)OCO2)NC1CCN(c2ccnc(NCc3ccc(F)cc3)n2)CC1
Property Measured: %Inh
Unit String: %
Experimental Value: 0
//
Compound: Cc1ccccc1COc1cc(-n2cnc3cc(Cl)ccc32)sc1C(N)=O
Property Measured: %Inh
Unit String: %
Experimental Value: 3
//
Compound: Nc1n[nH]c2nnc(-c3ccccc3)c(-c3ccccc3)c12
Property Measured: %Inh
Unit String: %
Experimental Value: 0
//
Compound: CCC(=O)c1c(-c2ccccc2)c2cc(Cl)ccc2c(=O)n1Cc1cc(S(C)(=O)=O)n(CC(N)=O)n1
Property Measured: %Inh
Unit String: %
Experimental Value: 15
//
Compound: O=C(Nc1n[nH]c2nc(-c3ccccc3)c(Br)cc12)C1CC1
Property Measured: %Inh
Unit String: %
Experimental Value: 0
//
Compound: COC(=O)c1c(-c2ccccc2)c2cc(C)ccc2c(=O)n1Cc1ccccc1
Property Measured: %Inh
Unit String: %
Experimental Value: 0
//
Compound: CN1C(=O)C(Nc2ccccc2)=C(c2ccccc2)C1=O
Property Measured: %Inh
Unit String: %
Experimental Value: 34
//
Compound: CCn1c(-c2ccoc2)nc2cnccc21
Property Measured: %Inh
Unit String: %
Experimental Value: 0
//
Compound: COC(=O)c1c(-c2ccccc2)c2cc(Br)ccc2c(=O)n1Cc1ccc(S(C)(=O)=O)cc1
Property Measured: %Inh
Unit String: %
Experimental Value: 0
//
Compound: OCCCNc1nccc(-c2c(-c3cccc(C(F)(F)F)c3)nn3cc(C(F)(F)F)ccc23)n1
Property Measured: %Inh
Unit String: %
Experimental Value: 0
//
Compound: Nc1nc(-c2ccccc2F)c(-c2ccnc3ccccc23)s1
Property Measured: %Inh
Unit String: %
Experimental Value: 0
//
Compound: Cl.c1ccc(Cn2cnc3cc(Nc4ncnc5ccccc45)ccc32)cc1
Property Measured: %Inh
Unit String: %
Experimental Value: 0
//
Compound: CCS(=O)(=O)c1ccc(OC)c(Nc2ncc(-c3ccc(F)cc3)o2)c1.Cl
Property Measured: %Inh
Unit String: %
Experimental Value: 0
//
Compound: CN1C(=O)C(Nc2cc(Cl)c(O)c(Cl)c2)=C(c2ccc(Cl)cc2)C1=O
Property Measured: %Inh
Unit String: %
Experimental Value: 0
//
Compound: COc1cc(Nc2nccc(N3CCC(NC(=O)C4COc5ccccc5O4)C3)n2)cc(OC)c1OC (stereo not shown)
Property Measured: %Inh
Unit String: %
Experimental Value: 0
//
Compound: COc1cc(Nc2nccc(N3CCC(NC(=O)C(C)c4ccc(Cl)cc4)C3)n2)cc(OC)c1OC (stereo not shown)
Property Measured: %Inh
Unit String: %
Experimental Value: 0

Just for reference, paper PMC5540273 is where these values come from.
